Recorded Bottom, one value per entry.
Biological target: T1, human chemokine (C-C motif) receptor 8 (CCR8) protein (human, UniProt P51685 1-355)
T1 construct: whole, on cells; also called human CCR8
Assay: cell binding, CCR8-expressing U2OS cells, curve fit
Please reply with the number alone, leaving off any unit.

137-H2L3 (antibody, V domains shown, Humanized 137D1H10) VH: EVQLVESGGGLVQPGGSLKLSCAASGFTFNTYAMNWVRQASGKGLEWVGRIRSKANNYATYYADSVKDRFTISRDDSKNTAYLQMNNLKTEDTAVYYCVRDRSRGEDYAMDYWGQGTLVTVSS VL: DIVMTQSPLSLPVTPGEPVSISCRSSKSLLHSNANTYLYWFLQKPGQSPQLLIYRMSNLASGVPDRFSGSGSGTAFTLKISRVEAEDVGVYYCMQHLEYPFTFGQGTKLEIK: 1320

Requested read-out: Bottom. Entry: 137-H3L2 (LM-108) (antibody, V domains shown, Humanized 137D1H10; Detected with anti-human IgG) VH: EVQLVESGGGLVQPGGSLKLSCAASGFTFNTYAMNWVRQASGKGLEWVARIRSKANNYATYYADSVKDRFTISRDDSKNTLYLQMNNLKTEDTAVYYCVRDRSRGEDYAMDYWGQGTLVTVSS VL: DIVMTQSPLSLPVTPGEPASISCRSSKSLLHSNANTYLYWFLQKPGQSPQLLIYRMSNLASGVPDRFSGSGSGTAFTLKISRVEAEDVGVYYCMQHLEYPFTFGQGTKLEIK
2060
